# systemTested: Chymotrypsin-like elastase family member 2A (Sus scrofa) (UniProt P08419)
# Sequence (whole entry): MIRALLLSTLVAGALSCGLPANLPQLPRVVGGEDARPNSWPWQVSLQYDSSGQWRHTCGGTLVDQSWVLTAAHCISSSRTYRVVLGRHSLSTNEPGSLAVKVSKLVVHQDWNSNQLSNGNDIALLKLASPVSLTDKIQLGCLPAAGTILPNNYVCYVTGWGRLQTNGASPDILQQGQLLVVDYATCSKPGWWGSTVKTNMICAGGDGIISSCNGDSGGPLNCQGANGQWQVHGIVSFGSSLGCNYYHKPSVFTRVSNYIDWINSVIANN
# testProtocol: Compound was evaluated for the inhibition of porcine pancreatic elastase (PPE).
assayEndpoint: k obs / 1 (M⁻¹ s⁻¹)

mol: CS(=O)(=O)ON1C(=O)c2ccccc2C1=O
k obs / 1, M⁻¹ s⁻¹: 6500

1: CC(C)S(=O)(=O)ON1C(=O)c2ccccc2C1=O
2: CS(=O)(=O)ON1C(=O)c2ccc(N)cc2C1=O
Between item 1 and item 2 , which reported k obs / 1 is smaller? Mark your selection by writing its label.
1
(1: 370 M⁻¹ s⁻¹, 2: 24000 M⁻¹ s⁻¹)

a: Cc1ccc(S(=O)(=O)ON2C(=O)c3ccc(C)cc3C2=O)cc1
b: Cc1ccc(S(=O)(=O)ON2C(=O)c3ccccc3C2=O)cc1
Lab notebook, comparison: a versus b , higher k obs / 1 goes to which? Pick one and reply with its label.
a
(a: 7400 M⁻¹ s⁻¹, b: 1400 M⁻¹ s⁻¹)

###

# systemTested: Chymotrypsinogen A (Bos taurus) (UniProt P00766)
# testProtocol: Compound was evaluated for the inhibition of Chymotrypsinogen
assayEndpoint: k obs / 1 (M⁻¹ s⁻¹)

mol: Cc1ccc(S(=O)(=O)ON2C(=O)c3ccc(C)cc3C2=O)cc1
k obs / 1 (M⁻¹ s⁻¹): 27000
//
mol: CC(C)S(=O)(=O)ON1C(=O)c2ccccc2C1=O
k obs / 1 (M⁻¹ s⁻¹): 160000
//
mol: Cc1ccc2c(c1)C(=O)N(OS(C)(=O)=O)C2=O
k obs / 1 (M⁻¹ s⁻¹): 16000
//
mol: Cc1ccc(S(=O)(=O)ON2C(=O)c3ccccc3C2=O)cc1
k obs / 1 (M⁻¹ s⁻¹): 90000
//
mol: CC(C)S(=O)(=O)ON1C(=O)c2ccc(N)cc2C1=O
k obs / 1 (M⁻¹ s⁻¹): 11000

I: CS(=O)(=O)ON1C(=O)c2ccc(N)cc2C1=O
II: CS(=O)(=O)ON1C(=O)c2ccccc2C1=O
Please indicate which item has the smaller measured k obs / 1: I versus II Pick one; state its label.
II
(II: 2700 M⁻¹ s⁻¹, I: 12000 M⁻¹ s⁻¹)

###

# systemTested: Neutrophil elastase (Homo sapiens)
# testProtocol: Compound was evaluated for the inhibition of human leukocyte elastase (HLE).
assayEndpoint: k obs / 1 (M⁻¹ s⁻¹)

Would you please look over these solved cases?
mol: CC(C)S(=O)(=O)ON1C(=O)c2ccccc2C1=O
k obs / 1 / M⁻¹ s⁻¹: 63000

mol: CS(=O)(=O)ON1C(=O)c2ccccc2C1=O
k obs / 1 / M⁻¹ s⁻¹: 61000

mol: CC(C)S(=O)(=O)ON1C(=O)c2ccc(N)cc2C1=O
k obs / 1 / M⁻¹ s⁻¹: 82000

mol: Cc1ccc(S(=O)(=O)ON2C(=O)c3ccccc3C2=O)cc1
k obs / 1 / M⁻¹ s⁻¹: 78000

I: Cc1ccc(S(=O)(=O)ON2C(=O)c3ccc(C)cc3C2=O)cc1
II: CS(=O)(=O)ON1C(=O)c2ccc(N)cc2C1=O
III: Cc1ccc2c(c1)C(=O)N(OS(C)(=O)=O)C2=O
Please list these in order of increasing k obs / 1. Thank you! // format: requested-order list of labels
III, I, II
